Assay: Solubility of carvacrol in the absence of cyclodextrins (S0) at different pH
Assay type: physicochemical
Settings: sodium acetate buffer, aqueous buffer, thermodynamic from solid; pH 5.5, 25 °C, absence of CDs
Quantity kind: solubility at 60 min (µM)
Give the value in µM but do not write µM after it.

GET /values?readout=solubility at 60 min&item= Cc1ccc(C(C)C)cc1O [carvacrol] 1650

###

Assay: Solubility of carvacrol in the absence of cyclodextrins (S0) at different pH
Assay type: physicochemical
Details: sodium phosphate buffer, aqueous buffer, thermodynamic from solid; pH 6.5, 25 °C, absence of CDs
Quantity kind: solubility at 60 min (µM)
Give the value in µM but do not write µM after it.

GET /values?readout=solubility at 60 min&item= Cc1ccc(C(C)C)cc1O 920

###

System: HCT-116 colorectal cancer cells
Test: Cell viability assay (tetrazolium), HCT-116
Format: cell-based
Conditions: Homo sapiens; HCT-116, 72 h incubation
Quantity kind: pIC50
Please treat pIC50 as minus the base-10 logarithm of the molar concentration.

GET /values?readout=pIC50&item= Cc1ccc(C(C)C)cc1O [carvacrol] 3.41

###

Assay: Solubility of carvacrol in the absence of cyclodextrins (S0) at different pH
Type: physicochemical
Settings: sodium borate buffer, aqueous buffer, thermodynamic from solid; pH 8.5, 25 °C, absence of CDs
Quantity kind: solubility at 60 min
Give the value; after it, write the unit.

GET /values?readout=solubility at 60 min&item= Cc1ccc(C(C)C)cc1O 760 µM

###

Assay: Solubility of carvacrol in the absence of cyclodextrins (S0) at different pH
Format: physicochemical
Details: sodium acetate buffer, aqueous buffer, thermodynamic from solid; pH 3.5, 25 °C, absence of CDs
Quantity kind: solubility at 60 min
Give the value; after it, write the unit.

GET /values?readout=solubility at 60 min&item= Cc1ccc(C(C)C)cc1O [carvacrol] 2760 µM
